study_target: KCNT1 (KNa1.1, Slack) (Homo sapiens, UniProt Q5JUK3)
Sequence (Q5JUK3 1-1230): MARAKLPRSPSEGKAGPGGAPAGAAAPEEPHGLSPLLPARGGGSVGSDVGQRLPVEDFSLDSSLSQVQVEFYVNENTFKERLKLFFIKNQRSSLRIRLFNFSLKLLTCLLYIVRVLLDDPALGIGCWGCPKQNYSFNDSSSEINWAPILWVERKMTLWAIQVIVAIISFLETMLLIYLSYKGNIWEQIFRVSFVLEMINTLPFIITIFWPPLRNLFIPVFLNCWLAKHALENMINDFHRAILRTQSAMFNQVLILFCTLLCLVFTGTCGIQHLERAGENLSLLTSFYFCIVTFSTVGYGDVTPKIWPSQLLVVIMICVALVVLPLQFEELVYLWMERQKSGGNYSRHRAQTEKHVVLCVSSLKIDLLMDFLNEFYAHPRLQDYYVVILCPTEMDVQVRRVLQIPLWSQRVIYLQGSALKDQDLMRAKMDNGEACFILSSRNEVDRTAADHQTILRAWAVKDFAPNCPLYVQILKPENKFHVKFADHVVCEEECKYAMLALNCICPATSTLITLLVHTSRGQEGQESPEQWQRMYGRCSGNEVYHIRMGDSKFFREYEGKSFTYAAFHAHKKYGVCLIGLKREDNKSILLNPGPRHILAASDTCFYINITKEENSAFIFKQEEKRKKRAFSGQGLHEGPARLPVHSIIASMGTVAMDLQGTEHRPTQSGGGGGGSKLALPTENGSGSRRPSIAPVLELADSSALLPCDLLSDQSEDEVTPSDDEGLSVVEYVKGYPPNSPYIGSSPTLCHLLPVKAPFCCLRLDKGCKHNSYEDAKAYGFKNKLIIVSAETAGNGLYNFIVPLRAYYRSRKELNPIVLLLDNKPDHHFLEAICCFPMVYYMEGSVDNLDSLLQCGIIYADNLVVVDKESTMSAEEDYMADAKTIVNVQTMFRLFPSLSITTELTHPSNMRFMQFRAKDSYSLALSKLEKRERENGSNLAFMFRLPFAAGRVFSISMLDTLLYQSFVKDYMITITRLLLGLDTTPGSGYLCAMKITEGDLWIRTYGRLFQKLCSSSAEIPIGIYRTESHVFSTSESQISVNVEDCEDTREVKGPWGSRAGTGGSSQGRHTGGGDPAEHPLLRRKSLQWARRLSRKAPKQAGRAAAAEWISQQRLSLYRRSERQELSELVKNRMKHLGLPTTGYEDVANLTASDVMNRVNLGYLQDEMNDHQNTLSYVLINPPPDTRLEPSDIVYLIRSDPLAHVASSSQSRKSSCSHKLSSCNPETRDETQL
assay_summary: KCNT1-WT-Basal-Patch Clamp Assay
cond: tetracycline inducible cell line (HEK-TREX), SyncroPatch 384PE automated patch clamp, perforated patch, holding -80 mV with step to 0 mV, room temperature
Procedure: KCNT1-WT-Basal-Patch Clamp Assay Inhibition of KCNT1 (KNa1.1, Slack) was evaluated using a tetracycline inducible cell line (HEK-TREX). Currents were recorded using the SyncroPatch 384PE automated, patch clamp system. […] Current were recorded in perforated patch mode (10 μM escin) from a population of cells. […] Currents were recorded at room temperature. […] Mean current was measured during the step to 0 mV. […]
pIC50: −log10 of the molar value.
reported_endpoint: pIC50

Please review the following examples before continuing.
[
  {
    "compound": "C[C@H](C(=O)N1CCCCC1)c1nc(-c2ccnc(C3CC3)c2)no1 (single isomer, unassigned) [Compound 7]",
    "reported_measurement": "≤ 4.70"
  },
  {
    "compound": "CC(C(=O)Nc1ccccc1)c1nc(-c2ccnc(C3CC3)c2)no1 (stereo not shown) [Compound 1]",
    "reported_measurement": "≥ 6.00"
  },
  {
    "compound": "C[C@@H](C(=O)NC1CCCCC1)c1nc(-c2ccnc(C3CC3)c2)no1 (single isomer, unassigned) [Compound 3]",
    "reported_measurement": "≥ 6.00"
  }
]

--- query ---
Q: Look up pIC50 of CC(C(=O)NCc1ccccc1)c1nc(-c2ccnc(C3CC3)c2)no1 (stereo not shown) [Compound 2] and report it.
Result: ≥ 6.00

====

study_target: UniProt:Q5JUK3
assay_summary: KCNT1-WT-Basal-Patch Clamp Assay
cond: tetracycline inducible cell line (HEK-TREX), SyncroPatch 384PE automated patch clamp, perforated patch, holding -80 mV with step to 0 mV, room temperature
Description: KCNT1-WT-Basal-Patch Clamp Assay Inhibition of KCNT1 (KNa1.1, Slack) was evaluated using a tetracycline inducible cell line (HEK-TREX). Currents were recorded using the SyncroPatch 384PE automated, patch clamp system. […] Current were recorded in perforated patch mode (10 μM escin) from a population of cells. […] Currents were recorded at room temperature. […] Mean current was measured during the step to 0 mV. […]
pIC50: −log10 of the molar value.
Known pIC50 of a selection of compounds

[
  {
    "compound": "CC(C(=O)N1CCCCC1)c1nc(-c2ccnc(C3CC3)c2)no1 (centres unmarked)",
    "reported_measurement": "4.70 to 6.00"
  },
  {
    "compound": "CC(C(=O)N[C@H](C)c1ccccc1)c1nc(-c2ccnc(C3CC3)c2)no1 (some centres unmarked)",
    "reported_measurement": "≥ 6.00"
  },
  {
    "compound": "CC(C(=O)N[C@@H](C)c1ccccc1)c1nc(-c2ccnc(C3CC3)c2)no1 (some centres unmarked)",
    "reported_measurement": "≥ 6.00"
  },
  {
    "compound": "C[C@@H](C(=O)Nc1ccccc1)c1nc(-c2ccnc(C3CC3)c2)no1 (single isomer, unassigned)",
    "reported_measurement": "≥ 6.00"
  },
  {
    "compound": "CC(C(=O)N(C)c1ccccc1)c1nc(-c2ccnc(C3CC3)c2)no1 (centres unmarked)",
    "reported_measurement": "4.70 to 6.00"
  }
]

Q: Provide pIC50, tested on UniProt:Q5JUK3, for C[C@@H](C(=O)N1CCCCC1)c1nc(-c2ccnc(C3CC3)c2)no1 (single isomer, unassigned) .
Result: 4.70 to 6.00

Q: Lab note: record pIC50 of C[C@H](C(=O)Nc1ccccc1)c1nc(-c2ccnc(C3CC3)c2)no1 (single isomer, unassigned) tested on UniProt:Q5JUK3.
Result: ≥ 6.00

Q: # lookup: UniProt:Q5JUK3 pIC50, key = C[C@H](C(=O)NC1CCCCC1)c1nc(-c2ccnc(C3CC3)c2)no1 (single isomer, unassigned)
Result: ≥ 6.00
